A collection of compounds and their measured activation at 100 µM
system: hiPSC-derived neurons co-cultured with human primary astrocytes in 2D; assay: Ca2+ transient oscillation assay (FDSS), 2D co-culture; type: cell-based; conditions: Homo sapiens, 1 h; 100 µM; 60 min; read-out: Peak amplitude - 2D Mean
The response must be a number in % with no trailing unit.

# input compound: CC(=O)OCC[N+](C)(C)C ; wanted: its activation at 100 µM
-17

Also O=C1NC(=O)C(c2ccccc2)(c2ccccc2)N1 , if possible.
0.2

###

system: hiPSC-derived neurons co-cultured with human primary astrocytes in 3D; test: Ca2+ transient oscillation assay (FDSS), 3D spheroids; type: cell-based; details: 0.37 µM; 60 min
READOUT_TYPE: Peak amplitude - 3D Mean (% change from baseline)
The response must be a number in % change from baseline with no trailing unit.

CCn1cc(C(=O)O)c(=O)c2cc(F)c(N3CCNCC3)nc21 [Enoxacin]	106.8

# input compound: CNCCCC12CCC(c3ccccc31)c1ccccc12 [Maprotiline] ; wanted: its Peak amplitude - 3D Mean
116.3

Also Nc1ccncc1 [4-AP, 4-Aminopyridine] , if possible.
44.3
